Biological target: recombinant human HDAC8 (Homo sapiens)
Sequence (Q9BY41 whole entry): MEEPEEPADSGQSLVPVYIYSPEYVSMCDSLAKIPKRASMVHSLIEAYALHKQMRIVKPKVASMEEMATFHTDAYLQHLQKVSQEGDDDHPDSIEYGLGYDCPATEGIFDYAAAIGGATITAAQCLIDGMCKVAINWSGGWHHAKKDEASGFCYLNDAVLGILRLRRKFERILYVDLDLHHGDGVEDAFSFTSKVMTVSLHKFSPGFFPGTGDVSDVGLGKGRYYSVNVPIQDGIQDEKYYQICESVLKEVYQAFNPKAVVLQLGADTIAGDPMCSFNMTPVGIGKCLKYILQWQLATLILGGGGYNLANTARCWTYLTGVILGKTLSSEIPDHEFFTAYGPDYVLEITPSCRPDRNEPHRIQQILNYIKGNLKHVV
Assay: In vitro HDAC8 homogenous fluorescence assay
Type: biochemical
pIC50: −log10 of the molar value.
reported property: pIC50

[[record]]
molecular_string = "Cl.Cn1cc(CN2CCN(c3ncc(C(=O)NO)cn3)CC2)c2ccccc21"
reported_property = "pIC50"
recorded_measurement = 7.31

